Target: PI3Kgamma (Homo sapiens)
Construct: His (N); host or cells: SF9 insect cells (baculovirus)
Sequence (P48736 whole entry): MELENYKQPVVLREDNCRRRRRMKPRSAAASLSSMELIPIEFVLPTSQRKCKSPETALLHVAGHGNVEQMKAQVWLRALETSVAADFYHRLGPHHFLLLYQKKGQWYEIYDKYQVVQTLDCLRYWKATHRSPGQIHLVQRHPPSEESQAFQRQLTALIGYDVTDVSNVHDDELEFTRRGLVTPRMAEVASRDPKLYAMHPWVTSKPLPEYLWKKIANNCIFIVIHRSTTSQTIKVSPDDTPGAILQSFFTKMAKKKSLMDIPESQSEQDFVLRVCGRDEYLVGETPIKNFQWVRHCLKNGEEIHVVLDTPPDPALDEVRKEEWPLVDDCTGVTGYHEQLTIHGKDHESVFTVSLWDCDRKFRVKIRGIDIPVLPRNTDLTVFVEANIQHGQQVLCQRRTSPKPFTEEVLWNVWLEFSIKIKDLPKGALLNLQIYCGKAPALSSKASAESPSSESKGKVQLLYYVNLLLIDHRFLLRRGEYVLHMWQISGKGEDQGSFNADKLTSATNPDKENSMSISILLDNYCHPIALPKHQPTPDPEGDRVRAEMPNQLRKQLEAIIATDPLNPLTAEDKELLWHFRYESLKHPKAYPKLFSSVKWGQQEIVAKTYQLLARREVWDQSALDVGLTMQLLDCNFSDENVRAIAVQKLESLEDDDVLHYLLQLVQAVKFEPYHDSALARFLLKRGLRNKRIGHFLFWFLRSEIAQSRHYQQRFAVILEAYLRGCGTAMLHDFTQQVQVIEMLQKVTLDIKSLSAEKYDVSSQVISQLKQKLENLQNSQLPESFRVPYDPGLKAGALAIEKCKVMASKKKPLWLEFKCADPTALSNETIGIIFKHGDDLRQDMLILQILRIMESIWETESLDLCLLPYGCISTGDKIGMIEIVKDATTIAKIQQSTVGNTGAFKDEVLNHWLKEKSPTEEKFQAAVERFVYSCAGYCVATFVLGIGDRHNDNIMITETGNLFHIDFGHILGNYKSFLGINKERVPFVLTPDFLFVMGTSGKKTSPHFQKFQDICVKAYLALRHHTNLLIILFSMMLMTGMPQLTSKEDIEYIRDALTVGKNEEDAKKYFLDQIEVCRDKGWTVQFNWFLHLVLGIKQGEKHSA
Assay: Human PI3K gamma enzyme assay (HTRF, as for PI3K alpha)
Format: biochemical
Conditions: read-out: PI3Kgamma % inh
In this scheme, each record receives a class according to its inhibition at 1.11 µM; the ranges are b0 (below 6%), b1 (6% to below 20%), b2 (20% or more)

Exercise: Assign a bin to O=C1CC(c2ccc3ccccc3n2)c2cc(N3CCOCC3)sc21 (stereo not drawn)
Key: b2

Exercise: Assign a bin to O=C1CC(c2cccc(Cl)c2)c2cc(N3CCOCC3)sc21 (stereo not drawn)
Key: b2

Exercise: Assign a bin to CC(=O)Nc1cc(-c2cc3c(s2)C(=O)CCC3c2ccc(Cl)cc2)ccn1 (stereo not drawn)
Key: b1

Exercise: Assign a bin to CC1(C)C(=O)c2sc(-c3ccncc3)cc2C1c1ccc(Cl)cc1 (stereo not drawn)
Key: b0

Exercise: Assign a bin to "CC(C)NC(=O)[C@@H]1NC(=O)c2sc(N3CCOCC3)cc2[C@H]1c1ccc(Cl)cc1"
Key: b0

Exercise: Assign a bin to "CN(C)C(=O)[C@@H]1NC(=O)c2sc(N3CCOCC3)cc2[C@H]1c1ccc(Cl)cc1"
Key: b1

Exercise: Assign a bin to O=C1NCCC(c2ccc(Cl)c(Cl)c2)c2nc(N3CCOCC3)sc21 (stereo not drawn)
Key: b2

Exercise: Assign a bin to O=C1NCCC(c2ccc(Cl)cc2)c2cc(N3CCOCC3)sc21 (stereo not drawn)
Key: b1

Exercise: Assign a bin to N#Cc1c(N2CCOCC2)sc2c1C(c1ccc3ccccc3c1)CCNC2=O (stereo not drawn)
Key: b2
